SYSTEM_TESTED: serum proteins
ASSAY: 90% serum, 30 kDa ultrafiltration, HPLC
QUANTITY_MEASURED: Protein binding (%)

Please review the following examples before continuing.
# BINDER, Protein binding (%)
rows = [
    ("GFCWRVCVYRNGARKCYRRCN [SEQ ID NO: 313]", 98),
    ("GFCARVCAKRNGVRVCYRRCN [SEQ ID NO: 363]", 80),
    ("GFCWNVCVYRNKVRVCHRRCN [SEQ ID NO: 227]", 80),
    ("GFCWRVCAYKNGKRSCYRRCN [SEQ ID NO: 523]", 90),
    ("GFCWYACVYRNGKRACYRRCN [SEQ ID NO: 340]", 98),
]

a. GFCWHVCARRNGVRVCYRRCN [SEQ ID NO: 218]
b. GFCFRSCVRRNGVRVCYRRCN [SEQ ID NO: 377]
c. GFCWRACVYRNGVRACYRRCN [SEQ ID NO: 319]
Sort low-to-high on Protein binding (%), please. Give the labels in the order requested. c, b, a
(c: 40%, b: 65%, a: 99%)
